EXPERIMENTAL TARGET: cathepsin H (Homo sapiens)
Sequence (P09668 98-335): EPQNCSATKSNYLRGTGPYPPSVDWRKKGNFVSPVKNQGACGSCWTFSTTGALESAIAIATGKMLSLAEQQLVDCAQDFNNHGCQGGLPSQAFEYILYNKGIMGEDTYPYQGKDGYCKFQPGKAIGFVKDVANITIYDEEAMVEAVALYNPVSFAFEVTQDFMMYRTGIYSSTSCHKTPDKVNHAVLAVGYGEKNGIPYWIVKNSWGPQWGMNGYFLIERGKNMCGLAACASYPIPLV
pIC50: −log10 of the molar value.
MEASURED PARAMETER: pIC50

Need pIC50, item COC(C)(C)C(=O)N[C@@H](CCCNC(=N)N)C(=O)COC(C(F)(F)F)C(F)(F)F < 5.00

---

EXPERIMENTAL TARGET: cathepsin S (Homo sapiens, UniProt P25774)
Sequence (P25774 115-331): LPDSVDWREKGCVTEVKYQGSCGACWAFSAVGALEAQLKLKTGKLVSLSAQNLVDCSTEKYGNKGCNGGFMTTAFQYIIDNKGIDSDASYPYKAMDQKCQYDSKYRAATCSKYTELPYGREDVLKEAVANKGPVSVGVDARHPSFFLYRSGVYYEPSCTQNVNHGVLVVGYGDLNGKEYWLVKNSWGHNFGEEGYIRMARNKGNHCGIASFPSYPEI
MEASURED PARAMETER: IC50

Please tell me: IC50 of COC(C)(C)C(=O)N[C@@H](CCCNC(=N)N)C(=O)COC(C(F)(F)F)C(F)(F)F [Compound 1] , system cathepsin S (Homo sapiens, UniProt P25774)? > 10 µM
